Test: PK of compound of Formula (Ia) after single subcutaneous dose of solution formulations in beagle dogs
Type: in vivo
Conditions: male, beagle, dog, plasma, sc, 12 mg/kg, beagle dogs, SC 12 mg/kg, 400 mg/mL solution W (5.00% ethanol, 1.57% poloxamer 188), 3696 h, Mean n = 3
Method: Formulations containing the compound of Formula (Ia), or a pharmaceutically acceptable salt thereof, were prepared as solutions and optionally administered subcutaneously or intramuscularly to rats, rabbits, and/or dogs. A solution of about 400 mg/mL of the compound of Formula (Ia) having 17.00 w/w % water, 36.40 w/w % PEG 300, 35.20 w/w % of a sodium salt of a compound of Formula (Ia), 5.00 w/w % ethanol, and 6.40 w/w % poloxamer 188 was prepared. […]
PROPERTY_LABEL: concentration at 3696 h (nM)
Write down the numeric answer in nM and omit the unit.

(Q) concentration at 3696 h lookup needed for `CC(C)(C#Cc1ccc(-c2ccc(Cl)c3c(NS(C)(=O)=O)nn(CC(F)(F)F)c23)c([C@H](Cc2cc(F)cc(F)c2)NC(=O)Cn2nc(C(F)(F)F)c3c2C(F)(F)[C@@H]2C[C@H]32)n1)S(C)(=O)=O` , thanks.
(A) 4.7

====

Experiment: PK of compound of Formula (Ia) after single subcutaneous dose of solution formulations in beagle dogs
Format: in vivo
Settings: male, beagle, dog, plasma, sc, 12 mg/kg, beagle dogs, SC 12 mg/kg, 500 mg/mL solution X (5.00% ethanol, 1.91% poloxamer 188), 2352 h, Mean n = 3
PROPERTY_LABEL: concentration at 2352 h
Returns: string containing the number followed by the unit.

(Q) What measured concentration at 2352 h goes with `CC(C)(C#Cc1ccc(-c2ccc(Cl)c3c(NS(C)(=O)=O)nn(CC(F)(F)F)c23)c([C@H](Cc2cc(F)cc(F)c2)NC(=O)Cn2nc(C(F)(F)F)c3c2C(F)(F)[C@@H]2C[C@H]32)n1)S(C)(=O)=O` ?
(A) 24.3 nM

====

Test: PK of compound of Formula (Ia) after single subcutaneous dose of solution formulations in Wistar Han rats
Format: in vivo
Settings: male, Wistar Han, rat, plasma, sc, 50 mg/kg, Wistar Han rats, SC 50 mg/kg, 400 mg/mL solution Z (3.13% poloxamer 188), 3696 h, animals #1, #3, #4 (#2 NS)
PROPERTY_LABEL: concentration at 3696 h (nM)
Quick reminder: number only, in nM, skip the unit.

(Q) Look up concentration at 3696 h for this molecule: `CC(C)(C#Cc1ccc(-c2ccc(Cl)c3c(NS(C)(=O)=O)nn(CC(F)(F)F)c23)c([C@H](Cc2cc(F)cc(F)c2)NC(=O)Cn2nc(C(F)(F)F)c3c2C(F)(F)[C@@H]2C[C@H]32)n1)S(C)(=O)=O`
(A) 91.2

====

Assay: PK of compound of Formula (Ia) after single subcutaneous dose of solution formulations in Wistar Han rats
Format: in vivo
Conditions: male, Wistar Han, rat, plasma, sc, 50 mg/kg, 2016 h; mean (rat #1 NS); SC 50 mg/kg; solution T, 400 mg/mL
PROPERTY_LABEL: concentration at 2016 h (nM)
# number only, unit nM dropped from output

(Q) So what's the measured concentration at 2016 h for this one? `CC(C)(C#Cc1ccc(-c2ccc(Cl)c3c(NS(C)(=O)=O)nn(CC(F)(F)F)c23)c([C@H](Cc2cc(F)cc(F)c2)NC(=O)Cn2nc(C(F)(F)F)c3c2C(F)(F)[C@@H]2C[C@H]32)n1)S(C)(=O)=O`
(A) 140

====

Test: PK of compound of Formula (Ia) after single intramuscular dose of solution formulations in Wistar Han rats
Assay type: in vivo
Details: male, Wistar Han, rat, plasma, intramuscular, 100 mg/kg, Solution H (~400 mg/mL); IM 100 mg/kg; Wistar Han rats; individual animals #1-#4; 3.00 h; read-out: Plasma concentration
PROPERTY_LABEL: concentration at 3 h (nM)
Please reply with the bare figure in nM and do not write the unit itself.

(Q) Report concentration at 3 h for `CC(C)(C#Cc1ccc(-c2ccc(Cl)c3c(NS(C)(=O)=O)nn(CC(F)(F)F)c23)c([C@H](Cc2cc(F)cc(F)c2)NC(=O)Cn2nc(C(F)(F)F)c3c2C(F)(F)[C@@H]2C[C@H]32)n1)S(C)(=O)=O` please.
(A) 179

====

Assay: PK of compound of Formula (Ia) after single subcutaneous dose of solution formulations in beagle dogs
Type: in vivo
Conditions: male, beagle, dog, plasma, sc, 12 mg/kg, beagle dogs, SC 12 mg/kg, 400 mg/mL solution Z (3.13% poloxamer 188), 672 h, Mean n = 3
PROPERTY_LABEL: concentration at 672 h
State the value with its unit after it.

(Q) GET /values?readout=concentration at 672 h&item= `CC(C)(C#Cc1ccc(-c2ccc(Cl)c3c(NS(C)(=O)=O)nn(CC(F)(F)F)c23)c([C@H](Cc2cc(F)cc(F)c2)NC(=O)Cn2nc(C(F)(F)F)c3c2C(F)(F)[C@@H]2C[C@H]32)n1)S(C)(=O)=O`
(A) 117 nM

====

Experiment: PK of compound of Formula (Ia) after single subcutaneous dose of solution formulations in Wistar Han rats
Type: in vivo
Conditions: male, Wistar Han, rat, plasma, sc, 50 mg/kg, 1008 h; mean, n = 5 rats; SC 50 mg/kg; solution T, 400 mg/mL
PROPERTY_LABEL: concentration at 1008 h (nM)
Report only the number, with the unit nM understood.

(Q) Requested read-out: concentration at 1008 h. Entry: CC(C)(C#Cc1ccc(-c2ccc(Cl)c3c(NS(C)(=O)=O)nn(CC(F)(F)F)c23)c([C@H](Cc2cc(F)cc(F)c2)NC(=O)Cn2nc(C(F)(F)F)c3c2C(F)(F)[C@@H]2C[C@H]32)n1)S(C)(=O)=O [compound of Formula (Ia)]
(A) 207

====

Assay: PK of compound of Formula (Ia) after single subcutaneous dose of solution formulations in Wistar Han rats
Type: in vivo
Settings: male, Wistar Han, rat, plasma, sc, 50 mg/kg, male Wistar Han rats, single SC 50 mg/kg, 500 mg/mL solution X (5.00% ethanol, 1.91% poloxamer 188), mean ± SD, n = 3; read-out: AUC0-1344 h
PROPERTY_LABEL: AUC(0-t) (µM·h)
Please reply with the bare figure in µM·h and do not write the unit itself.

(Q) Can you look up the measured AUC(0-t) of `CC(C)(C#Cc1ccc(-c2ccc(Cl)c3c(NS(C)(=O)=O)nn(CC(F)(F)F)c23)c([C@H](Cc2cc(F)cc(F)c2)NC(=O)Cn2nc(C(F)(F)F)c3c2C(F)(F)[C@@H]2C[C@H]32)n1)S(C)(=O)=O` for me?
(A) 329

====

Assay: PK of compound of Formula (Ia) after single subcutaneous dose of solution formulations in Wistar Han rats
Format: in vivo
Settings: male, Wistar Han, rat, plasma, sc, 50 mg/kg, Wistar Han rats, SC 50 mg/kg, 400 mg/mL solution Y (water, PEG 300), 96.0 h, Mean n = 4
PROPERTY_LABEL: concentration at 96 h (nM)
// return numeric value only (unit: nM, not printed)

(Q) Query: concentration at 96 h; subject: `CC(C)(C#Cc1ccc(-c2ccc(Cl)c3c(NS(C)(=O)=O)nn(CC(F)(F)F)c23)c([C@H](Cc2cc(F)cc(F)c2)NC(=O)Cn2nc(C(F)(F)F)c3c2C(F)(F)[C@@H]2C[C@H]32)n1)S(C)(=O)=O`
(A) 95.3

====

Test: PK of compound of Formula (Ia) after single subcutaneous dose of solution formulations in beagle dogs
Format: in vivo
Details: male, beagle, dog, plasma, sc, 12 mg/kg, mean ± SD, n = 3 dogs; SC 12 mg/kg; solution T, 400 mg/mL
PROPERTY_LABEL: half-life (days)
Field: numeric (days). Do not append units.

(Q) Form field: reported half-life of CC(C)(C#Cc1ccc(-c2ccc(Cl)c3c(NS(C)(=O)=O)nn(CC(F)(F)F)c23)c([C@H](Cc2cc(F)cc(F)c2)NC(=O)Cn2nc(C(F)(F)F)c3c2C(F)(F)[C@@H]2C[C@H]32)n1)S(C)(=O)=O [compound of Formula (Ia)]
(A) 14.7

====

Assay: PK of compound of Formula (Ia) after single subcutaneous dose of solution formulations in Wistar Han rats
Type: in vivo
Settings: male, Wistar Han, rat, plasma, sc, 50 mg/kg, male Wistar Han rats, single SC 50 mg/kg, 400 mg/mL solution W (5.00% ethanol, 1.57% poloxamer 188), mean ± SD, n = 3; read-out: AUC0-1008 h
PROPERTY_LABEL: AUC(0-t) (µM·h)
Your answer should be a plain number; it is taken to be in µM·h.

(Q) I would be grateful if you could share the reported AUC(0-t) for `CC(C)(C#Cc1ccc(-c2ccc(Cl)c3c(NS(C)(=O)=O)nn(CC(F)(F)F)c23)c([C@H](Cc2cc(F)cc(F)c2)NC(=O)Cn2nc(C(F)(F)F)c3c2C(F)(F)[C@@H]2C[C@H]32)n1)S(C)(=O)=O` .
(A) 215

// provenance: patent US11807625B2
